Listed below: aptazyme ON/OFF ratio values for each entry.
B1: Pistol ribozyme (parent)
chain: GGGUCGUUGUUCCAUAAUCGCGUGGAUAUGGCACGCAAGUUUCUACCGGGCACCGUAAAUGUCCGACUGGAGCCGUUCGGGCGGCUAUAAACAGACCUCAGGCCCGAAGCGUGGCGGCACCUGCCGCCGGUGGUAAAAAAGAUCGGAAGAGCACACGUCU

- Variants of: B1
- method.summary: aptazyme ON/OFF ratio, guanine; higher = stronger switching; co-transcriptional cleavage with and without guanine

sequence.variant | aptazyme ON/OFF ratio
G9C C12G C13G | 1.14
U7A G9U U10G C13U | 1.54
U7G U8C G9C U11A C12U | 1.23

Measured values drawn from the RNAGym collection of RNA variant scans (doi:10.1021/acssynbio.7b00057) for this set.
